Measured log10(IC50) of individual entries
Tested on: rhinovirus B14
method notes: Antiviral activity against Human rhinovirus 14 assessed as reduction in virus yield after 24 to 36 hrs by agar plaque assay
Assay type: functional
reported conditions: Rhinovirus B; read-out: ID50 (the source's name)
Values below are the log10 of the recorded IC50, with µg/mL as the unit.

molecule: CC(=O)c1ccc(OCCCOCCc2cc(C)no2)cc1
tgt: rhinovirus B14
log10(IC50): 1.40

molecule: CCOC(=O)c1ccc(OCCC2CCN(c3ccc(C)nn3)CC2)cc1 [PIRODAVIR]
tgt: rhinovirus B14
log10(IC50): -1.92

GET /value?item= `Fc1ccc(OCCCOc2ccc3c(c2)OCO3)cc1` &field=log10(IC50) returns 1.40

GET /value?item= `CCOc1nc2ccc(OCCCOc3ccc(C#N)cc3)cc2o1` &field=log10(IC50) returns 1.40

GET /value?item= `CCOc1nc2ccc(OCCCOc3ccc4c(c3)OCO4)cc2o1` &field=log10(IC50) returns 1.40

---

method notes: Cytotoxicity against human HeLa cells after 24 to 72 hrs by MTT assay
Assay type: cell-based
reported conditions: read-out: CD50 (the source's name)
measurement label: CC50 (mg/L)
Report the figure in mg/L without appending any unit label.

compound: CCOC(=O)c1ccc(OCCC2CCN(c3ccc(C)nn3)CC2)cc1 [PIRODAVIR]
unit name: mg/L
numeric readout: 3.1
--
compound: CC(=O)c1ccc(OCCCOCc2ccc3c(c2)OCO3)cc1
unit name: mg/L
numeric readout: 50
--
compound: CC(=O)c1ccc(OCCCOCCc2cc(C)no2)cc1
unit name: mg/L
numeric readout: 50

GET /value?item= `CCOc1nc2ccc(OCCCOc3ccc(C#N)cc3)cc2o1` &field=CC50 returns 50

GET /value?item= `Cc1cc(OCCCOc2ccc3c(c2)OCO3)on1` &field=CC50 returns 50

GET /value?item= `CCOc1nc2ccc(OCCCOc3ccc(C(C)=O)cc3)cc2o1` &field=CC50 returns 200

GET /value?item= `CCOC(=O)c1ccc(OCCCOCCc2cc(C)no2)cc1` &field=CC50 returns 50

GET /value?item= `CC(=O)c1ccc(OCCCOc2ccc3c(c2)OCO3)cc1` &field=CC50 returns 25

---

System: rhinovirus B14
method notes: Antiviral activity against Human rhinovirus 14 assessed as reduction in virus yield after 24 to 36 hrs by agar plaque assay
Assay type: functional
reported conditions: Rhinovirus B; read-out: ID50 (the source's name)
Measured IC50 of individual entries
Report the figure in µg/mL without appending any unit label.

Recorded results for 5 compounds are shown here.
entry smiles: Cc1cc(OCCCOc2ccc3c(c2)OCO3)on1
unit name: µg/mL
numeric readout: 25
--
entry smiles: CCOC(=O)c1ccc(OCCCOCCc2cc(C)no2)cc1
unit name: µg/mL
numeric readout: 0.07
--
entry smiles: CCOc1nc2ccc(OCCCOc3ccc(C(C)=O)cc3)cc2o1
unit name: µg/mL
numeric readout: 0.5
--
entry smiles: CC(=O)c1ccc(OCCCOCc2ccc3c(c2)OCO3)cc1
unit name: µg/mL
numeric readout: 6
--
entry smiles: CC(=O)c1ccc(OCCCOc2ccc3c(c2)OCO3)cc1
unit name: µg/mL
numeric readout: 25

GET /value?item= `Cc1cc(CCOCCCOc2ccc3c(c2)OCO3)on1` &field=IC50 returns 50

---

method notes: Cytotoxicity against human HeLa cells after 24 to 72 hrs by MTT assay
Format: cell-based
reported conditions: read-out: CD50 (the source's name)
measurement label: CC50 (µg/mL)
Report the figure in µg/mL without appending any unit label.

Recorded results for 2 compounds are shown here.
entry smiles: CCOc1nc2ccc(OCCCOc3ccc4c(c3)OCO4)cc2o1
CC50 (µg/mL): 200
--
entry smiles: Cc1cc(CCOCCCOc2ccc3c(c2)OCO3)on1
CC50 (µg/mL): 50

We next turn to a different compound, shown below.
GET /value?item= `Fc1ccc(OCCCOc2ccc3c(c2)OCO3)cc1` &field=CC50 returns 25
